Target: T1, mouse programmed cell death protein 1 Fc fusion protein (mPD-1-Fc), mPD-1 C60S (aa 25-167) (Mus musculus, UniProt Q02242, stabilised)
T1 construct: not cleaved; source: Expi293F, purified (Protein A, SEC; dimeric fraction); not shown: Fc (human), C-terminal, kept
Experiment: SPR; Carterra LSA; Fab from the ammonium sulfate precipitate of the culture supernatant immobilised on a NiHC200M chip; hPD-1 (1-1024 nM) or mPD-1-Fc (4-1024 nM) as analyte, fourfold dilution series, no regeneration; HBS-EP pH 7.4, 25 °C; medians over the spots of a construct, KD = koff/kon
Settings: one partner purified
Reported values of kon for individual entries
Provide the reading as a plain figure in M⁻¹ s⁻¹.

Recorded result, toripalimab Fab L.N58A (Fab, V domains shown, as the heavy chain of Sm3; light chain of Sm3 with this change; numbers count from the chain's first residue; source: Brevibacillus, culture supernatant (ammonium sulfate precipitate); not shown: 6xHis, C-terminal, kept; 6xHN, C-terminal, kept) VH: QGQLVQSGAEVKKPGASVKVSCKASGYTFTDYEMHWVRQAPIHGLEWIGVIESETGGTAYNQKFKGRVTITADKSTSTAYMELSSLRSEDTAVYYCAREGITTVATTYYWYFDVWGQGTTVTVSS VL: DVVMTQSPLSLPVTLGQPASISCRSSQSIVHSNGNTYLEWYLQKPGQSPQLLIYKVSARFSGVPDRFSGSGSGTDFTLKISRVEAEDVGVYYCFQGSHVPLTFGQGTKLEIK , kon: 42600

Reported kon for toripalimab Fab H.Y109A (Fab, V domains shown, heavy chain of Sm3 with this change; numbers count from the chain's first residue; as the light chain of Sm3; source: Brevibacillus, culture supernatant (ammonium sulfate precipitate); not shown: 6xHis, C-terminal, kept; 6xHN, C-terminal, kept) VH: QGQLVQSGAEVKKPGASVKVSCKASGYTFTDYEMHWVRQAPIHGLEWIGVIESETGGTAYNQKFKGRVTITADKSTSTAYMELSSLRSEDTAVYYCAREGITTVATTYAWYFDVWGQGTTVTVSS VL: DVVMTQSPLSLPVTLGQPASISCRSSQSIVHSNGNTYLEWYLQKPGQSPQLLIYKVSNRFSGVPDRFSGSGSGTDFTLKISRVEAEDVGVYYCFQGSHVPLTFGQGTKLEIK was 36000

Per the records, this binder ( toripalimab Fab H.K65A (Fab, V domains shown, heavy chain of Sm3 with this change; numbers count from the chain's first residue; as the light chain of Sm3; source: Brevibacillus, culture supernatant (ammonium sulfate precipitate); not shown: 6xHis, C-terminal, kept; 6xHN, C-terminal, kept) VH: QGQLVQSGAEVKKPGASVKVSCKASGYTFTDYEMHWVRQAPIHGLEWIGVIESETGGTAYNQKFAGRVTITADKSTSTAYMELSSLRSEDTAVYYCAREGITTVATTYYWYFDVWGQGTTVTVSS VL: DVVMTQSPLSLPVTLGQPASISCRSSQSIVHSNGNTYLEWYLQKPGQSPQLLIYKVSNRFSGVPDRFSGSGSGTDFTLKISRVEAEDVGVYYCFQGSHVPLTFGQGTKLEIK ) has kon equal to 35400

New cases:
In plain terms, toripalimab Fab L.P100V (Fab, V domains shown, as the heavy chain of Sm3; light chain of Sm3 with this change; numbers count from the chain's first residue; source: Brevibacillus, culture supernatant (ammonium sulfate precipitate); not shown: 6xHis, C-terminal, kept; 6xHN, C-terminal, kept) VH: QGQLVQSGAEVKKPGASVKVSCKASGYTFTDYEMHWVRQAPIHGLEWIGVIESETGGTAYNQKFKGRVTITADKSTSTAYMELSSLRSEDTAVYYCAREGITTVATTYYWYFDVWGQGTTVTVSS VL: DVVMTQSPLSLPVTLGQPASISCRSSQSIVHSNGNTYLEWYLQKPGQSPQLLIYKVSNRFSGVPDRFSGSGSGTDFTLKISRVEAEDVGVYYCFQGSHVVLTFGQGTKLEIK has a documented kon of 15900

kon in this record for toripalimab Fab L.I29Y (Fab, V domains shown, as the heavy chain of Sm3; light chain of Sm3 with this change; numbers count from the chain's first residue; source: Brevibacillus, culture supernatant (ammonium sulfate precipitate); not shown: 6xHis, C-terminal, kept; 6xHN, C-terminal, kept) VH: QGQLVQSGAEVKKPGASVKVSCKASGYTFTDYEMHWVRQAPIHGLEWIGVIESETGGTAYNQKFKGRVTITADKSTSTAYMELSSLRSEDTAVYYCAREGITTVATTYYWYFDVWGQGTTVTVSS VL: DVVMTQSPLSLPVTLGQPASISCRSSQSYVHSNGNTYLEWYLQKPGQSPQLLIYKVSNRFSGVPDRFSGSGSGTDFTLKISRVEAEDVGVYYCFQGSHVPLTFGQGTKLEIK : 71400

Value source: paper PMC10663500
